This collection of values is drawn from patent US7332608B2.

target: Human Kv1.5 channels (Homo sapiens, UniProt P22460); assay: Kv1.5 currents in Xenopus oocytes, two-microelectrode voltage clamp; conditions: human Kv1.5 expressed in Xenopus laevis oocytes; voltage jumps 500 ms to 0 mV and 40 mV; room temperature; Hill equation
Sequence (P22460 whole entry): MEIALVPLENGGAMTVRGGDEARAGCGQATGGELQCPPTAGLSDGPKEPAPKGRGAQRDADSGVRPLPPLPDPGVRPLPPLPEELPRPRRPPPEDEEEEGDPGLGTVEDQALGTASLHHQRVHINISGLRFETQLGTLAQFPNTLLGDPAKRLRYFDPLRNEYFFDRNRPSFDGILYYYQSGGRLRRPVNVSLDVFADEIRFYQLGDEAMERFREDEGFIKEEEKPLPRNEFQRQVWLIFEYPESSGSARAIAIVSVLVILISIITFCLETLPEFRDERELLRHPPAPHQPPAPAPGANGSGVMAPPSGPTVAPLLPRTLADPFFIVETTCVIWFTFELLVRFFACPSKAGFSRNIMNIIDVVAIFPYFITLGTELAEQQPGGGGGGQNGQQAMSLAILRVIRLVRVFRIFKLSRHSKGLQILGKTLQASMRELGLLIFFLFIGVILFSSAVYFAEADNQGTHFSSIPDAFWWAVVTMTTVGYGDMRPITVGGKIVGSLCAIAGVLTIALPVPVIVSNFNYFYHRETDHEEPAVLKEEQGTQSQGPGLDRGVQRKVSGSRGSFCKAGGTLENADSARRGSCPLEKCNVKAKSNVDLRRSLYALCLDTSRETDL
Measured Quantity: pIC50
In plain terms, pIC50 is the concentration in mol/L turned into minus its base-10 logarithm.

Please review the entries below; each comes with its answer.
Compound	Measured Quantity	Value Measured
CC[C@H](NC(=O)c1cc(OC)ccc1NS(=O)(=O)c1ccc(OC)cc1)c1ccccc1	pIC50	6.52
CCC(NC(=O)c1cc(C)ccc1NS(=O)(=O)C1CC1)c1ccc(C)o1 (centres unmarked)	pIC50	5.60
CCCCS(=O)(=O)Nc1ccccc1C(=O)N(Cc1cccnc1)Cc1cccc(C)n1	pIC50	5.54
CCC(NC(=O)c1cc(OC)ccc1NS(=O)(=O)c1ccc(C)cc1)c1ccccc1 (centres unmarked)	pIC50	6.22

pIC50 in this record for COc1ccc(NS(=O)(=O)c2cccc(C(F)(F)F)c2)c(C(=O)N(Cc2ccccc2)Cc2nccn2C)c1 : 5.27

Briefly, pIC50 measured for CCCCS(=O)(=O)Nc1ccc(C)cc1C(=O)NC(c1ccc(OC)nc1)C1CC1 (centres unmarked) : 5.89

###

biological target: Human Kv1.5 channels (Homo sapiens); assay: Kv1.5 currents in Xenopus oocytes, two-microelectrode voltage clamp; details: human Kv1.5 expressed in Xenopus laevis oocytes; voltage jumps 500 ms to 0 mV and 40 mV; room temperature; Hill equation
A collection of compounds and their measured IC50

Compound	Value Measured
Cc1ccc(S(=O)(=O)Nc2ccccc2C(=O)N(Cc2ccccc2)Cc2ccc(C)o2)cc1 [Example 36]	2000 nM
Cc1ccc(S(=O)(=O)Nc2ccc(Cl)cc2C(=O)N(Cc2ccccc2)Cc2cccnc2)cc1 [Example 45]	2500 nM
CCC(NC(=O)c1cc(OC)ccc1NS(=O)(=O)c1ccc(C)cc1)c1ccc(OC)nc1 (centres unmarked) [Example 139]	1000 nM
COc1cc(C)ccc1S(=O)(=O)Nc1ccc(Cl)cc1C(=O)NCCOCc1ccccc1 [Example 29]	5100 nM
CC[C@@H](NC(=O)c1cc(Cl)ccc1NS(=O)(=O)c1ccccc1)c1ccccc1 [Example 4]	4100 nM
CCC(NC(=O)c1cc(OC)ccc1NS(=O)(=O)c1ccc(C)cc1)c1ccc(F)cc1 (centres unmarked) [Example 91]	800 nM
COc1ccc(NS(=O)(=O)c2ccc(C)cc2OC)c(C(=O)NC2CCC(C)CC2)c1 (centres unmarked) [Example 27]	5600 nM
O=C(c1ccccc1NS(=O)(=O)c1ccc(Cl)cc1)N(Cc1ccccc1)Cc1cccnc1 [Example 44]	2900 nM
CC[C@H](NC(=O)c1ccccc1NS(=O)(=O)c1ccc2ccccc2c1)c1ccccc1 [Example 61]	5600 nM
C[C@@H](NC(=O)c1cc(Cl)ccc1NS(=O)(=O)c1ccccc1)c1ccccc1 [Example 2]	8200 nM

Readout IC50 for COc1ccc(NS(=O)(=O)c2ccc(C)cc2)c(C(=O)N[C@H]2CC[C@H](C)CC2)c1 [Example 143] , test system Human Kv1.5 channels (Homo sapiens), was 3600 nM

CCCCS(=O)(=O)Nc1ccc(C)cc1C(=O)NC(CC)c1cccnc1 (centres unmarked) [Example 144] tested on Human Kv1.5 channels (Homo sapiens) gave IC50: 2800 nM

Entry Cc1ccc(S(=O)(=O)Nc2ccc(F)cc2C(=O)N(Cc2ccccc2)Cc2nccn2C)cc1 [Example 81] ; assay system Human Kv1.5 channels (Homo sapiens); IC50 recorded at 400 nM
